run.description: chemical genetic growth profiling, strain panel (AID 1159580);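 also: tested at 20 µM; growth read once vehicle control cultures reached saturation at 30 °C; 1 = growth at the plate median or of vehicle wells; lower values mean less growth of the strain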
particulars: S. cerevisiae deletion strains, growth OD, locus YNL153C, strain GIM3, stronger effect = lower value
Hit rate of the full screen: of about 5,500 compounds, about 2,000 (36%) were called active. Another 18% or so got no clear call; they are omitted. This is one part of the list.
Parameter normalized growth: see the listing below.

| molecule | normalized growth |
| --- | --- |
| Cc1nn(-c2ccccc2)nc1C(=O)NC(=O)N1CCCC1 | 0.986 |
| Cc1c(C(=O)O)cc(-c2ccccc2)n1-c1ccccc1 | 0.952 |
| NCC1(CC(=O)O)CCCCC1 | 1.02 |
| O=C(Nc1ccccc1C(=O)NC1CCCCNC1=O)c1cccs1 (configuration not stated) | 1 |
| COc1c(O)cc2oc3cc(O)c(CC=C(C)C)c(O)c3c(=O)c2c1CC=C(C)C | 0.625 |
| CCc1cccc(C)c1N(C(=O)CCl)C(C)COC (configuration not stated) | 1.01 |
| CCOC(=O)/C=C(\C)OP(=O)(OC)OC | 0.985 |
| COc1ccc(C[C@H]2NC[C@H](O)[C@H]2OC(C)=O)cc1 | 0.62 |
| CCCC[N+]1(C)C2CC(OC(=O)[C@H](CO)c3ccccc3)CC1C1OC12 (some centres not stated) | 0.987 |
| Cc1c(N(C)C)c(=O)n(-c2ccccc2)n1C | 0.985 |
| CC12CCC(C1)C(C)(C)C2NC(=O)c1cccs1 (configuration not stated) | 1 |
| CC(N)Cc1c[nH]c2ccc(O)cc12 (configuration not stated) | 1.01 |

----------
run.description: chemical genetic growth profiling, strain panel (AID 1159580);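 also: tested at 20 µM; growth read once vehicle control cultures reached saturation at 30 °C; 1 = growth at the plate median or of vehicle wells; lower values mean less growth of the strain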
particulars: S. cerevisiae deletion strains, growth OD, locus YNL233W, strain BNI4
Out of some 5,500 compounds screened, about 2,000 (36%) were called active. About 18% were inconclusive and are not listed. Rule as the data show it: active = normalized growth mostly below about 0.91 (no sharp cut-off); inconclusive = no clear call, values can overlap the other calls; inactive = mostly above about 0.92. This is one part of the list.
Classes used: True (active), False (inactive)

| molecule | group.label |
| --- | --- |
| O=C1CC(c2ccccc2)Oc2ccccc21 (stereo not given) | False |
| C/C=C(/C(=C/C)c1ccc(O)cc1)c1ccc(O)cc1 | True |
| CC(C)=CCc1c(O)cc(C)oc1=O | False |
| COc1ccc(C2CC(=O)c3ccc(OC)cc3O2)cc1 (stereo not given) | True |
| CC1(O)/C=C/C=C(\CO)C2CC(C)(C)C2(O)CC1 (stereo not given) | False |
| C=C(C)/C=C1/C=CC(=O)C(C)=C1 | True |
| CC(C)N(C(=O)CCl)c1ccccc1 | False |
| NC(=O)N1c2ccccc2CC(=O)c2ccccc21 | False |
| OCC(O)Cc1ccc2c(c1)OCO2 (stereo not given) | False |
| Cc1cc(C(C)(C)CC(C)(C)C)ccc1OCCOCC[N+](C)(C)Cc1ccccc1 | True |
| O=C1C[C@@H](c2ccc(O)cc2)Oc2cc(O)cc(O)c21 | False |
| O=C(O)c1cc(=O)c2cc(Cl)ccc2[nH]1 | False |
| N#Cc1c(Cl)c(Cl)c(Cl)c(C#N)c1Cl | False |
| COC(=O)COc1ccc(Cl)cc1Cl | False |
| C=CC(C)(C)c1c2c(c(O)c3c(=O)c4ccc(O)c(O)c4oc13)C=CC(C)(C)O2 | True |
| CC(C(=O)O)c1ccc2c(c1)[nH]c1ccc(Cl)cc12 (stereo not given) | False |
| COc1ccc(C[C@H]2NC[C@H](O)[C@H]2OC(C)=O)cc1 | True |
| CCOC(=O)/C=C(\C)OP(=O)(OC)OC | False |
| COc1ccc2c(c1)C1(C)CCC(=O)CC1CC2 (stereo not given) | False |
| CCCCCC(C)N (stereo not given) | False |
| C1CCc2nnnn2CC1 | False |
| O=C(/C=C/C=C/c1ccc2c(c1)OCO2)N1CCCCC1 | False |
| Oc1ccc(O)cc1 | False |
| COC(=O)c1c(Cl)c(Cl)c(C(=O)OC)c(Cl)c1Cl | False |
| CC(C)(C)CC(C)(C)c1ccc(OCCOCC[N+](C)(C)Cc2ccccc2)cc1 | False |
| COc1cccc2c1CCC1CC(=O)CCC21C (stereo not given) | False |
| COc1c2c(c(CC=C(C)C)c3oc(=O)c(-c4ccc(O)cc4)c(O)c13)OC(C)(C)C=C2 | True |
| OCc1ccccc1O[C@@H]1O[C@H](CO)[C@@H](O)[C@H](O)[C@H]1O | False |
| CCCCCCCCCCCCC[N+](C)(C)Cc1ccccc1 | True |
| CN1C2CC3C[C@H]1C(O3)C2O (stereo not given in full) | False |
| O=C(O)c1cc(=O)c2ccc(Cl)cc2[nH]1 | False |
| CC(C)CC1C(=O)N2CCC[C@H]2C2(O)O[C@](NC(=O)C3C=C4c5cccc6[nH]c(Br)c(c56)C[C@H]4N(C)C3)(C(C)C)C(=O)N12 (stereo not given in full) | False |
| Oc1c(Cl)c(Cl)c(Cl)c(Cl)c1Cl | True |
| NC/C=C/C(=O)O | False |
| C[C@@H]1O[C@@H](O[C@H]2[C@@H](Oc3cc(O)c4c(c3)O[C@H](c3ccc(O)cc3)CC4=O)O[C@H](CO)[C@@H](O)[C@@H]2O)[C@H](O)[C@H](O)[C@H]1O | False |
